Attribution: the nanobody polyreactivity screen of Harvey et al. (2022)

Assay: yeast display, Sf9 membrane polyspecificity reagent, FACS + sequencing; frameworks hold sequencing errors
PROPERTY NAME: polyreactivity (PSR sort gate)

Before answering, review these 5 worked examples.
// polyreactivity (PSR sort gate) lookup, key: QVQLVESVGGLVQAGGSLRLSCAASGSTFRYNAMGWYRQAPGKERELVATISSDGITYYADSVNGRFTISRDNAKNTVYLQMNRLKPEDTAVYYCAASYAGGFDYWGQGTQVTVSS high polyreactivity

Look up polyreactivity (PSR sort gate): QVQLVESGGGLEQAGGSLRLSCAASGRTFQYYTMGLYRQAPGKERELVAAISTGGSTHYSDSVKGRFTISRDNAKNTVYLEMFSLKPVDTAVYYCAALWSRRRSRPRFPGDFWGQGTQLTVSS high polyreactivity

Need polyreactivity (PSR sort gate), item QVQLVESGGGLVQAGGSLRLSCAASGFTSYLYTMGWYRQAPGKERELVAAISNSGGNTYYADSVKGRFTISRDNAKNTVYLQMNSLKPEDTAVYYCAARLFAAKYRYGYWGQGTQVTVSS high polyreactivity

Item under review: QVQLVESGGGLVQAGGSLRLSCAASGSTFAGHAMGWSRQAPGKERELVAAITFSGGRTDYADSVKGRFTISRDNAKNTVYLQMNSLIPEDTAVYYCAAPADDTVHYQNYYWGQGTQVTVSS . Reported polyreactivity (PSR sort gate)? low polyreactivity

What does the record list as polyreactivity (PSR sort gate) for QVQLVESGGGLVQAGGSLRLSCAASGFIFYIYPMGWYRQAPGKERELLAAISWNGGSTYYADSVKGRFTISRDNAKNTVYLQMNSLNPEDTAVFYCATLARYRYGTGRFDYWGQGTQVTVSS ? high polyreactivity

***
Record request: polyreactivity (PSR sort gate) value, item QVQLVESGGGLVQAGGSLRLSCAASGSIFSFNVMGWYRQAPGKEREMVATITGGGSTNYADSVKGRFTISRDNAKNTVYLQMNSLKPEDTAVYYCNKRNRWTPFYTYDYWGQGTQVTVSS low polyreactivity

Which polyreactivity (PSR sort gate) value belongs to QVQLVESGGGLVQAGGSLRLSCAASGSIFYSYAMGWYRRAPGKERELVARITSSTGRTYYADSVKGRFTISRDNAKNTVYLQMNSLKAEDTAVYYCNVVVKGAWDYYPYDYWGQGTQVTVSS ? high polyreactivity

Quick check: polyreactivity (PSR sort gate) of QVQLVESGGGLVQAGGSLRLSCAASGRIFPKYAMVWYRQAPGKERELVAGITKRVGSTYYADSVKGRFTISRDNAKNTVYLQMNSLKPEDTAVYYCAADYRYLIDYLDPEKEGMDYWGQGTQVTVSS ? low polyreactivity

Which value of polyreactivity (PSR sort gate) has been reported for QVQLVESGGGLVQEGGSLRLICAASGLIFPRYSMGWYRQAPGKERELVAAITRGGSTYYADSVKGRFTISRDNAMNTVYLQMNSLKQEDTAVSYCNAELPVHWSWYVYWGQGTQVTVSS in the records? low polyreactivity

Quick one: polyreactivity (PSR sort gate) of QVQLVESGGGLVQAGGSLRLSCAASGFIFGFYAMGWYRQAPGKERELVAAISWSGGSTYYADSVKGRFTISRDNAKNTVYLQMNSLKPEDTAGYYCAAYFYYLDDAVTYDYWGQGTQVTVSS ? low polyreactivity

Please report the recorded polyreactivity (PSR sort gate) for QVQLVESGGGLVKAGGSLRLSFAASGRNFRRNAMGWYRQAPGRERELVAAISSSGGSTYYADSVKGRFTISRDNAKNTVYLQMNSLKPEDTAVYYCAVRSRFGYYWGQGTQVTVSS . high polyreactivity
